Reference source: patent US11091496B2

- Assay type: physicochemical
- Experimental parameters: […]; total 1 mg/ml; 0.1 N HCl 37° C.; 4 h
Measurement kind: % Oxycodone, % IVA-IVD in hydrolysis mixture (%)
Answers are plain numbers, in %.

Provide % Oxycodone, % IVA-IVD in hydrolysis mixture for all items below, preserving their order.
1. COc1ccc2c3c1O[C@H]1[C@@]4(CCC5(O)[C@@H](C2)N(C)CC[C@]315)O[C@H](C)C[C@H](C)O4 (some centres unmarked)
2. COc1ccc2c3c1O[C@H]1[C@]4(CCC5(O)[C@@H](C2)N(C)CC[C@]315)O[C@H](C)C[C@H](C)O4 (some centres unmarked)
3. COc1ccc2c3c1O[C@H]1C(=O)CC[C@@]4(O)[C@@H](C2)N(C)CC[C@]314 [Oxycodone, oxycodone, reference compound]
4. COc1ccc2c3c1O[C@H]1C4(CCC5(O)[C@@H](C2)N(C)CC[C@]315)O[C@@H](C)C[C@H](C)O4 (some centres unmarked)

1. 9.2
2. 23.7
3. 56.8
4. 10.3

Requested field: % Oxycodone, % IVA-IVD in hydrolysis mixture. Item: COc1ccc2c3c1O[C@H]1C4(CCC5(O)[C@@H](C2)N(C)CC[C@]315)O[C@H](C)C[C@@H](C)O4 (some centres unmarked)
0
